Cited source for all entries: patent US8183236B2

# Target Under Test: UniProt:P12497
# Protocol Notes: HIV-1 integrase strand transfer assay (32P-labeled 21-mer, gel)
# Format: biochemical
# Test Conditions: unit inferred; read-out: IN inhibition activity Strand transfer
Test Readout: log10 IC50 (log10 of the value in µM)

>>> assay_result("O=C(CSc1nnc(-c2ccc(Cl)cc2)n1-c1ccccc1)NNC(=O)c1ccccc1O [AS9A9]")
0.70
>>> assay_result("O=C(CSc1nc2ccccc2n1Cc1ccccc1)N/N=C/c1cc(Br)ccc1O [Compound X244]")
1.71
>>> assay_result("CCOC(=O)c1sc(N2C(=O)C(O)=C(C(=O)c3ccccc3)C2c2ccc(F)cc2)nc1C (centres unmarked) [Compound M28A10]")
1.32
>>> assay_result("COc1ccc(C2C(C(=O)c3ccc(Br)cc3)=C(O)C(=O)N2CCc2ccccc2)cc1OC (centres unmarked) [AS143]")
1.62
>>> assay_result("CC(C)(C)c1ccc(C(=O)N/N=C/c2ccc(-c3cccc(C(=O)O)c3)o2)cc1 [AV15A36]")
1.75
>>> assay_result("N#C/C(=C\\c1ccc(-c2ccc(O)c(C(=O)O)c2)o1)c1nc2ccccc2[nH]1 [AV15A9]")
1.15
>>> assay_result("CCOC(=O)c1sc(N2C(=O)C(O)=C(C(=O)c3ccc(C)cc3)C2c2ccc(F)cc2)nc1C (centres unmarked) [Compound M28A18]")
1.52
>>> assay_result("CN(C)c1nc(NCc2ccccc2)nc(N/N=C/c2ccc(-c3cccc(C(=O)O)c3)o2)n1 [AV15A26]")
1.94
>>> assay_result("COc1ccccc1-n1c(SCC(=O)NNC(=O)c2ccccc2O)nnc1-c1ccccc1O [AS9A6]")
0.78
>>> assay_result("N#C/C(=C\\c1ccc(-c2cc(Cl)ccc2C(=O)O)o1)c1nc2ccccc2[nH]1 [AV15A52]")
1.71
>>> assay_result("CC1=C(C#N)c2nc(N)c(C#N)c(C)c2/C1=C/c1ccc(-c2ccc(C(=O)O)c(Cl)c2)o1 [AV15A44]")
1.83
>>> assay_result("Cc1cc(C)nc(SCc2nnc(SCC(=O)NNC(=O)c3ccccc3O)n2-c2ccccc2)n1 [AS9A3]")
1.43
>>> assay_result("Cn1c(SCC(=O)NNC(=O)c2ccccc2O)nnc1-c1ccccc1 [AS9A1]")
1.76
>>> assay_result("COc1ccc(C2C(C(=O)c3ccc(Br)cc3)=C(O)C(=O)N2c2cccc(C(F)(F)F)c2)cc1OC (centres unmarked) [AS134]")
1.41
>>> assay_result("Cc1ccc(-n2c(SCC(=O)NNC(=O)c3ccccc3O)nnc2-c2ccccc2)cc1 [AS120]")
1.08
>>> assay_result("N#C/C(=C\\c1ccc(-c2ccc(Cl)c(C(=O)O)c2)o1)c1nc2ccccc2[nH]1 [AV15A10]")
1.48
>>> assay_result("CC(C)(C)c1ccc(C2C(C(=O)c3ccc(F)cc3)=C(O)C(=O)N2c2nncs2)cc1 (centres unmarked) [Compound M28A2]")
1.63
>>> assay_result("N#Cc1c(/N=C/c2ccc(-c3cccc(C(=O)O)c3)o2)sc2c1CCCC2 [AV15A23]")
1.79
>>> assay_result("O=C(N/N=C/c1ccc(-c2ccc(O)c(C(=O)O)c2)o1)c1cccnc1 [SA1]")
0.95
>>> assay_result("CC(C)(C)c1ccc(OCC(=O)N/N=C/c2ccc(-c3cccc(C(=O)O)c3)o2)cc1 [AV15A35]")
1.93
>>> assay_result("O=C(O)c1cccc(-c2ccc(/C=N/NC(=O)c3ccc(C(=O)N/N=C/c4ccc(-c5cccc(C(=O)O)c5)o4)cc3)o2)c1 [AV15A20]")
1.98
>>> assay_result("O=C(CSc1nnc(-c2ccncc2)n1-c1ccc(F)cc1)NNC(=O)c1ccccc1O [AS9A7]")
1.49
>>> assay_result("O=C(O)c1cccc(-c2ccc(/C=C3\\Sc4ccccc4C3=O)o2)c1 [AV15A6]")
1.38
>>> assay_result("O=C(CSc1nnc(-c2ccccc2)n1Cc1ccccc1)NNC(=O)c1ccccc1O [AS90]")
0.95
>>> assay_result("COc1cccc(NC(=O)c2sc3[nH]c(=O)c(C(=O)O)cc3c2N)c1 [GLD45]")
1.63
>>> assay_result("N#Cc1c(-c2ccc(Cl)cc2)cc(-c2ccccc2)nc1SCC(=O)O [GLD2A2]")
1.78
>>> assay_result("O=C(CSc1nnc(Cc2ccccc2)n1-c1cccc(Cl)c1)NNC(=O)c1ccccc1O [AS230]")
0.90

====

# Target Under Test: UniProtKB P12497
# Protocol Notes: HIV-1 integrase 3′-processing assay (32P-labeled 21-mer, gel)
# Type: biochemical
# Test Conditions: wild-type IN 200 nM, 7.5 mM MnCl2; read-out: Inhibition of IN Catalytic Activities IC50 (μM) 3′-processing
As shown below, each of these molecules has a reported IC50 value.
Test Readout: IC50 (µM)

>>> assay_result("CCn1cc(C(=O)O)c(=O)c2cc(F)c(N3CCN(C(=S)NC(=O)C45CC6CC(CC(C6)C4)C5)CC3)cc21 [ROM3A8]")
78
>>> assay_result("O=C(NC(=S)N1CCN(c2cc3c(cc2F)c(=O)c(C(=O)O)cn3C2CC2)CC1)c1ccc(Cl)cc1 [ROM3A9]")
80
>>> assay_result("Cn1c(=O)c(C(=O)Nc2ccccc2C(F)(F)F)c(O)c2ccccc21 [XR12]")
81
>>> assay_result("O=C(N/N=C/c1ccc(-c2ccc(Cl)c(Cl)c2)o1)c1ccccc1O [OT8]")
31
>>> assay_result("O=C(O)c1cccc(-c2ccc(/C=N/Nc3nc4nonc4nc3Nc3ccc(F)cc3)o2)c1 [AV30]")
10
>>> assay_result("O=C(Nc1ncccc1O)c1c(O)c2cccc3c2n(c1=O)CCC3 [LM11]")
56
>>> assay_result("O=C(NC1CC1)c1c[nH]c2ccc(S(=O)(=O)Nc3cccc(C(F)(F)F)c3)cc2c1=O [ROM3A10]")
93
>>> assay_result("CCn1c(=O)c(C(=O)Nc2ccccc2O)c(O)c2ccccc21 [XR10]")
72
>>> assay_result("CCCCn1c(=O)c(C(=O)Nc2ccccc2S(N)(=O)=O)c(O)c2ccccc21 [XR14]")
15
>>> assay_result("COc1cc(/C=C2/SC(=S)N(CC(=O)O)C2=O)ccc1OCc1ccccc1Cl [OT4]")
48

====

As shown below, each of these compounds has a reported IC50 value.
# Target Under Test: UniProt:P12497
# Protocol Notes: HIV-1 integrase strand transfer assay (32P-labeled 21-mer, gel)
# Assay type: biochemical
# Test Conditions: unit inferred; read-out: IN inhibition activity Strand transfer
Test Readout: IC50 (µM)

>>> assay_result("Cc1cccc(Nc2nc3nonc3nc2N/N=C/c2ccc(-c3cccc(C(=O)O)c3)o2)c1 [AV15A21]")
7
>>> assay_result("O=C(C1=C(O)C(=O)N(c2nc3ccccc3s2)C1c1cccnc1)c1ccc(Cl)cc1 (centres unmarked) [Compound M28A21]")
90
>>> assay_result("O=C(O)c1cccc(-c2ccc(/C=N/NC(=O)c3cccnc3)o2)c1 [AV15A4]")
96
>>> assay_result("Nc1nonc1C(=O)N/N=C/c1ccc(-c2cccc(C(=O)O)c2)o1 [AV15A5]")
88
>>> assay_result("O=C(N/N=C/c1ccc(-c2ccc(Cl)c(C(=O)O)c2)o1)c1ccncc1 [AV15A40]")
46
>>> assay_result("N=C1S/C(=C/c2ccc(-c3ccccc3C(=O)O)o2)C(=O)N1c1ccc2c(c1)OCO2 [Compound T36]")
6.5
>>> assay_result("Cc1ccc(C(=O)C2=C(O)C(=O)N(c3nccs3)C2c2ccc(F)cc2)cc1 (centres unmarked) [Compound M28A7]")
78
>>> assay_result("O=C(O)c1cc(-c2ccc(/C=c3\\sc4nc5ccccc5n4c3=O)o2)ccc1Cl [AV15A22]")
15
>>> assay_result("O=C(O)c1cccc(-c2ccc(/C=N/Nc3nc4ccccc4s3)o2)c1 [AV15A43]")
24
>>> assay_result("Nc1c(C(=O)Nc2ccc(Cl)c(Cl)c2)sc2[nH]c(=O)c(C(=O)O)cc12 [GLD44]")
5
>>> assay_result("Cc1ccc(C2C(C(=O)c3ccc(Cl)cc3)=C(O)C(=O)N2CC(=O)O)cc1 (centres unmarked) [Compound X81]")
69

====

# Target Under Test: HIV-1 integrase (wild-type IN) (Human immunodeficiency virus type 1 group M subtype B)
# Protocol Notes: HIV-1 integrase 3′-processing assay (32P-labeled 21-mer, gel)
# Format: biochemical
# Test Conditions: wild-type IN 200 nM, 7.5 mM MnCl2; read-out: Inhibition of IN Catalytic Activities IC50 (μM) 3′-processing
Test Readout: IC50 (µM)

>>> assay_result("CCn1c(=O)c(C(=O)Nc2cc(Cl)ccc2OC)c(O)c2ccccc21")
74
>>> assay_result("Cc1ccc(/C=C2\\SC(=S)N(CCC(=O)Nc3ccc(S(=O)(=O)Nc4nccs4)cc3)C2=O)cc1")
83
>>> assay_result("CCc1ccc(C=C2SC(=S)N(CCC(=O)Nc3ccc(O)c(C(=O)O)c3)C2=O)cc1")
15
>>> assay_result("O=c1cc(-c2ccccc2)c2ccc(O)c(O)c2o1")
32
